Hi! I'm sharing some MIC results obtained with Cryptococcus gattii.

// worked examples, MIC included
N#CCCOc1ccc(Cc2cc(-c3cccnc3N)on2)cn1 [compound 224] ... > 1 µg/mL
Nc1ncccc1-c1cc(Cc2cnc(SCc3ccccc3)nc2)no1 [compound 125] ... > 1 µg/mL
Nc1ncccc1-c1cc(Cc2ccc(OCc3ccn4ccnc4c3)nc2)no1 [compound 206] ... > 1 µg/mL
Nc1ncccc1-c1cnn(Cc2ccc(OCc3ccccc3)nc2)c1 [compound 101] ... 0.01 to 0.1 µg/mL
Nc1ncccc1-c1cc(Cc2cnc(Oc3cccc(F)c3)c(F)c2)no1 [compound 256] ... > 1 µg/mL

Lookup: Requested read-out MIC, target or system Cryptococcus gattii, entry Nc1ncccc1-c1cc(Cc2ccc(OCc3cnccn3)nc2)no1 [compound 47]
Found: 0.1 to 1 µg/mL

Lookup: Form entry - test system: Cryptococcus gattii; read-out: MIC; molecule: Nc1ncccc1-c1cc(Cc2ccc(Oc3nc(F)c(F)cc3F)cc2)no1 [compound 241]
Found: 0.01 to 0.1 µg/mL

Lookup: MIC of Nc1ncccc1-c1cc(Cc2ccc(Nc3ccccc3)cc2)no1 [Example 144] on Cryptococcus gattii?
Found: 0.01 to 0.1 µg/mL

Lookup: Tell me reported MIC for Cc1c(OCC(F)(F)F)ccnc1COc1ccc(Cc2cc(-c3cccnc3N)on2)cn1 [compound 217] , tested with Cryptococcus gattii.
Found: > 1 µg/mL
